# MEASURED ON: mu opioid receptor (Cavia porcellus, UniProt A0ACM8Q262)
# Construct: full-length wild-type receptor
# Sequence (A0ACM8Q262 1-400): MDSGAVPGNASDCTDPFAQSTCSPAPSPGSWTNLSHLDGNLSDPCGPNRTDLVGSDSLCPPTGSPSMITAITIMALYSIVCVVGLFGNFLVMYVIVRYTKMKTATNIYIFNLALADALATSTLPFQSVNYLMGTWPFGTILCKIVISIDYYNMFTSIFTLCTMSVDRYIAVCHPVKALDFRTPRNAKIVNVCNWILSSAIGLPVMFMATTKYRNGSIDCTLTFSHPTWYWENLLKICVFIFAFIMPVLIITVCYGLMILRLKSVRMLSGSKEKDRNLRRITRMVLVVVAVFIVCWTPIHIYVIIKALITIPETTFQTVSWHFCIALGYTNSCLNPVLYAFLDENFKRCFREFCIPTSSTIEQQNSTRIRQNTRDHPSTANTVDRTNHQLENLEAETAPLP
# ASSAY SUMMARY: mu opioid receptor binding: tritiated DAGO in guinea pig brain homogenates
# EXPERIMENTAL PARAMETERS: read-out: Opoid Binding Mu Ki; guinea pig brain homogenate, [3H]DAGO, 150 minutes, 0° C.
Listing of entries alongside the reported pKi.
// pKi is dimensionless: -log10 of concentration (M)

Some compounds with recorded pKi:
In [3]: df
Out[3]:
                                   compound  value
0  CO[C@H]1C[C@@H](N2CCCC2)[C@H](N(C)C(=O)COc2cc(C)c(Cl)c(C)c2)C[C@H]1OC (relative stereo)   6.14
1  CO[C@H]1C[C@@H](N2CCCC2)[C@H](N(C)C(=O)COc2ccc(Cl)c(Cl)c2)C[C@H]1OC (relative stereo)   5.96
2  CO[C@H]1C[C@@H](N2CCCC2)[C@H](N(C)C(=O)COc2cc(C)c(Cl)c(C)c2Cl)C[C@H]1OC (relative stereo)   6.15
3  CO[C@H]1C[C@@H](N2CCCC2)[C@H](N(C)C(=O)CC2c3ccccc3-c3ccccc32)C[C@H]1OC (relative stereo)   6.56

Could you now consider this next compound?
Exercise: For the compound shown here, CO[C@H]1C[C@@H](N2CCCC2)[C@H](N(C)C(=O)COc2cccc(F)c2)C[C@H]1OC (relative stereo) , give the reported pKi.
Solution: 5.96

====

Some molecules, each annotated with its measured Rat Paw Pressure MPE50.
# ASSAY SUMMARY: standard rat paw pressure analgesia test
# Type: in vivo
# EXPERIMENTAL PARAMETERS: i.v.
Please respond with the number in mg·kg and leave the unit unwritten.

Exercise: Entry under review: CO[C@H]1C[C@@H](N2CCCC2)[C@H](N(C)C(=O)Cc2ccc(Cl)c(Cl)c2)C[C@H]1OC (relative stereo) [Compound 6] . Reported Rat Paw Pressure MPE50?
Solution: 5.2

Exercise: Data request, read-out Rat Paw Pressure MPE50, for CO[C@H]1C[C@@H](N2CCCC2)[C@H](N(C)C(=O)Cc2cccc3ccccc23)C[C@H]1OC (relative stereo) [Compound 5]
Solution: 1.7

Sourced from patent US4855316A
